Condition Info: in acetonitrile, 328.15 K
Test Readout: solubility (mole fraction)
Numbers only.

According to the records, this compound Cc1nc2n(c(=O)c1CCN1CCC(c3noc4cc(F)ccc34)CC1)CCCC2O (stereo unspecified) displays solubility (mole fraction) of 0.00035

* * *

Condition Info: in ethanol, 328.15 K
Test Readout: solubility (mole fraction)
Answers are plain numbers.

According to the records, this compound Cc1nc2n(c(=O)c1CCN1CCC(c3noc4cc(F)ccc34)CC1)CCCC2O (stereo unspecified) displays solubility (mole fraction) of 0.00079

* * *

Condition Info: in 1,4-dioxane, 308.15 K
Test Readout: solubility (mole fraction)
Give bare numbers.

According to the records, this molecule Cc1nc2n(c(=O)c1CCN1CCC(c3noc4cc(F)ccc34)CC1)CCCC2O (stereo unspecified) displays solubility (mole fraction) of 0.00159
